Test system: NCI-H460
Assay: Cytotoxicity against human NCI-H460 cells after 48 hrs by MTT assay
Type: functional, cell-based
Settings: NCI-H460, 48 h
outcome measure: IC50 (µM)
Answers are plain numbers, in µM.

A selection of reference data follows.
- smiles string: "CCOC(=O)c1c2c(n3cc(C)ccc13)C(=O)c1cnncc1C2=O"
  IC50 (µM): 11.1
- smiles string: "CC(=O)c1c2c(n3ccccc13)C(=O)c1cnncc1C2=O"
  IC50 (µM): 21.3
- smiles string: "O=C1c2cnncc2C(=O)c2c1cc1ccccn21"
  IC50 (µM): 11.4
- smiles string: "Cc1c2c(n3ccccc13)C(=O)c1cnncc1C2=O"
  IC50 (µM): 1.21
- smiles string: "CC(=O)c1c2c(n3cccc(F)c13)C(=O)c1cnncc1C2=O"
  IC50 (µM): 10.6
- smiles string: "COC(=O)c1c2c(n3ccccc13)C(=O)c1cnncc1C2=O"
  IC50 (µM): 9.94
- smiles string: "CCOC(=O)c1c2c(n3cccc(C)c13)C(=O)c1cnncc1C2=O"
  IC50 (µM): 1.18
- smiles string: "N#Cc1c2c(n3ccccc13)C(=O)c1cnncc1C2=O"
  IC50 (µM): 9.32
- smiles string: "CCOC(=O)c1c2c(n3cccc(O)c13)C(=O)c1cnncc1C2=O"
  IC50 (µM): 23.5

Problem: What value of IC50 has been reported for the following molecule? "CCOC(=O)c1c2c(n3cccc(Cl)c13)C(=O)c1cnncc1C2=O"
Result: 1.44
